Ref: paper PMC12207370

Target: biotinylated CD59 (Homo sapiens, UniProt P13987)
Construct: Recombinant soluble human CD59 with an additional C-terminal cysteine residue
Sequence (P13987 26-102 limits assumed): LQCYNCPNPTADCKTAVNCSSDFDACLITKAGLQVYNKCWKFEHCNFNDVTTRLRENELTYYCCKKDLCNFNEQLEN
Test: mRNA-display cyclic peptide screen against CD59-biotin, NGS abundance after 6th selection round
Conditions: counts normalised by total counts of sample Seq II; percentage of the pool, sheet R6
We begin with a simple list: items and their reported Percentage Seq II.
METRIC_NAME: Percentage Seq II (%)

1. CFARRLSASFGT ... 0.935
2. CLDKWGRLWT ... 0.042
3. QWNRWYGIDEL ... 0.070
4. IASGSLHFVFY ... 0.032
5. SSWAQLPCRR ... 0.070
6. YAFGSRDITYY ... 0.023
7. HCWVRGSRDYT ... 0.046
8. SWTWGNRSSVRG ... 2.799
9. TSYGSRVFAYF ... 0.030
10. STRRDRLGLIC ... 1.033
11. HVIGNRSFTRG ... 0.016
12. SWTWGNRNSVRG ... 0.065
13. WRDRFDQCVL ... 2.351
14. CLRRHVTASDV ... 0.023
15. YVRGDAWTVLG ... 0.019
16. CFSARAILDGGW ... 0.248
17. CYGGRTFIHAWS ... 0.049
18. VSRGDSTYTLF ... 0.028
19. FVSGNSRFRRE ... 0.070
20. CFAGRPTIDAV ... 0.028
21. CFSKRIAPGAQ ... 0.019
22. CFSRRLTAGAV ... 0.030
23. YVYGSRDRCWG ... 0.441
24. CYGGRTFIYAWP ... 0.072
25. SAWGNRQIQYF ... 0.030
26. CFAGRLTEGV ... 0.044
27. HVRGDAWTVLG ... 0.216
28. LWGAANYLKVIY ... 0.023
29. HVFGNGSFTRG ... 0.035
30. FVTGNREHTRG ... 0.035
31. SAYGSRDFAWA ... 0.023
32. CYGGRTYIYAWS ... 0.019
33. CFSSRVQSGDT ... 0.190
34. VKYGNSNFVRG ... 0.657
35. CYGGRTFTYAWS ... 0.306
36. HVFGNRSFTSG ... 0.021
37. CIDVYGRMWA ... 0.091
38. CFSRRTSVPNTT ... 0.190
39. CFSRRSTSSQST ... 0.019
40. SISGGRDYTRG ... 0.026
41. AKGNGHFAYG ... 0.114
42. WSTRTFTCRTLL ... 0.446
